half-life at 10 μM reference
assay: Stability/conversion of esters in human intestinal S9; type: in vitro ADME; settings: intestinal S9 (without PMSF), pH 7.4, read-out: T1/2 Human Intestinal S9

Example molecules with recorded half-life at 10 μM:
{"molecule": "CC1=C[C@@H]2CN(C(=O)N2O[C@H](F)C(=O)OC(C)OC(=O)OC(C)C)[C@@H]1C(N)=O (stereo partly shown)", "result": "< 1 min"}
{"molecule": "CC1=C[C@@H]2CN(C(=O)N2O[C@H](F)C(=O)OC(C(C)C)C(C)C)[C@@H]1C(N)=O", "result": "> 100 min"}
{"molecule": "CC1=C[C@@H]2CN(C(=O)N2O[C@H](F)C(=O)Oc2ccc3c(c2)CCC3)[C@@H]1C(N)=O", "result": "< 1 min"}

For the next question, use this molecule.
Item "CC1=C[C@@H]2CN(C(=O)N2O[C@H](F)C(=O)OCOC(=O)C(C)(C)C)[C@@H]1C(N)=O" has what recorded half-life at 10 μM?
< 1 min
